- Procedure summary: Binding affinity to Homo sapiens (human) G-quadruplex DNA assessed as formation of G4TER1 mutant complex after 2 min by PCR stop assay
Measurement name: IC50 (µM)
Quick note: give the figure in µM, leave out the unit.

Noted for Cc1oc2nc1-c1nc(co1)-c1nc(co1)-c1nc(co1)-c1nc(co1)-c1nc(co1)C1=NC(CS1)c1nc-2c(C)o1 (stereo unspecified) : its IC50 reads 10

----------
- Procedure summary: Binding affinity to Homo sapiens (human) G-quadruplex DNA assessed as formation of VNTR6-1 mutant complex after 2 min by PCR stop assay
Measurement name: pIC50
Please report pIC50 as the negative decimal logarithm of the molar concentration, giving only the number.

The molecule listed as Cc1oc2nc1-c1nc(co1)-c1nc(co1)-c1nc(co1)-c1nc(co1)-c1nc(co1)C1=NC(CS1)c1nc-2c(C)o1 (stereo unspecified) has a reported pIC50 of 5.05

----------
- Assay system: DNA topoisomerase 2 (Saccharomyces cerevisiae S288c)
- Sequence (P06786 whole entry): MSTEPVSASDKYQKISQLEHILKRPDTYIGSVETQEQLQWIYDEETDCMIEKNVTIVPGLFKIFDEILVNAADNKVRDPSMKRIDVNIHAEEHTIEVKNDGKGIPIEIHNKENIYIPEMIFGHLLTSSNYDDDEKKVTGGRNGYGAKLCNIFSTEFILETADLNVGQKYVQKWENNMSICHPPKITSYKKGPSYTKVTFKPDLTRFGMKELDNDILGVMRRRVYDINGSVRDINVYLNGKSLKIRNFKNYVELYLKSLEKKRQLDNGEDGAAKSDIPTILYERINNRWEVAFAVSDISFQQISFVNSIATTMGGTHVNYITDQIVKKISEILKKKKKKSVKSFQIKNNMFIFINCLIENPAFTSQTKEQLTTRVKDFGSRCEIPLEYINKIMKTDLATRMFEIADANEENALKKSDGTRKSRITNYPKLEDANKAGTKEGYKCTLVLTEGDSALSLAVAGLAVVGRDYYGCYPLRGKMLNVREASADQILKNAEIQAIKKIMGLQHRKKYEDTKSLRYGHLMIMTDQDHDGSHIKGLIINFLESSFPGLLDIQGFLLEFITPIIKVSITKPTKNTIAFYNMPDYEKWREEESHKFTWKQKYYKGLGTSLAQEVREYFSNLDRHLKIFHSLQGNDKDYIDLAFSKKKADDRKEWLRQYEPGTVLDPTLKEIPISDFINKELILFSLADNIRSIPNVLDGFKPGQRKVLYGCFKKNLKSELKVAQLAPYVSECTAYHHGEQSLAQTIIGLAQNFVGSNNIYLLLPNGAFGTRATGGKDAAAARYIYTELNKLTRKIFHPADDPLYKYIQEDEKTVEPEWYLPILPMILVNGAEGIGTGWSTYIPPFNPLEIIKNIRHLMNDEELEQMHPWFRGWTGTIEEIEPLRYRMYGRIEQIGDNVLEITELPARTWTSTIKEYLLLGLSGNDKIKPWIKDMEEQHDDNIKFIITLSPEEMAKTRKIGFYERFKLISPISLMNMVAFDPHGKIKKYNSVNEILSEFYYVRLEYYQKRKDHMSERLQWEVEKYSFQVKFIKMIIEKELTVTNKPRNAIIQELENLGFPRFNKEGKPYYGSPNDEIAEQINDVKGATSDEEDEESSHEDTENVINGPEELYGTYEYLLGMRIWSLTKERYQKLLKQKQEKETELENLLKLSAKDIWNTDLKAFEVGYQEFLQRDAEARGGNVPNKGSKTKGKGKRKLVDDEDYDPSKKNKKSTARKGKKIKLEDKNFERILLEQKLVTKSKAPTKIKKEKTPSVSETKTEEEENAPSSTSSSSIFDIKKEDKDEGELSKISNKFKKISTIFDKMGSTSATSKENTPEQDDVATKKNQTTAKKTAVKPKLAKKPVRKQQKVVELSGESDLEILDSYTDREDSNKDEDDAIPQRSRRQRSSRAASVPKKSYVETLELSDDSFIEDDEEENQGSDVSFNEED
Measurement name: pIC50
In textbook form, pIC50 equals minus log to base ten of the concentration in mol/L.

DNA topoisomerase 2 (Saccharomyces cerevisiae S288c) pIC50 of O=C(O[C@@H]1Cc2c(O)cc(O)cc2O[C@@H]1c1cc(O)c(O)c(O)c1)c1cc(O)c(O)c(O)c1 [EPIGALOCATECHIN GALLATE] is 2.52

----------
A set of compounds tested on Apoptosis regulator Bcl-2 (Homo sapiens, UniProt P10415), with measured pKi:
Give only the number. pKi is defined as minus log10 of concentration in molar units.

Consider the following illustrative entries.
[[record]]
compound = "O=C(O[C@@H]1Cc2c(O)cc(O)cc2O[C@@H]1c1ccc(O)c(O)c1)c1cc(O)c(O)c(O)c1 [EPICATECHIN GALLATE]"
readout_value = 6.40

[[record]]
compound = "O=C(O[C@@H]1Cc2c(O)cc(O)cc2O[C@@H]1c1cc(O)c(O)c(O)c1)c1cc(O)c(O)c(O)c1 [EPIGALOCATECHIN GALLATE]"
readout_value = 6.47

[[record]]
compound = "O=C(O[C@@H]1Cc2c(O)cc(O)cc2O[C@H]1c1cc(O)c(O)c(O)c1)c1cc(O)c(O)c(O)c1 [GALLOCATECHIN GALLATE]"
readout_value = 6.63


Kindly note: Apoptosis regulator Bcl-2 (Homo sapiens, UniProt P10415), O=C(O[C@@H]1Cc2c(O)cc(O)cc2O[C@H]1c1ccc(O)c(O)c1)c1cc(O)c(O)c(O)c1 [CATECHIN GALLATE] , pKi value reported: 6.64

The reported numbers originate from ChEMBL document CHEMBL3046684.
